measured_on: hGYS2 enzyme (recombinant hGYS2/GN1 protein) (Homo sapiens (Human))
measurement_notes: GYS2 coupled enzyme assay (PK/LDH)
settings: geometric mean of at least 2 assay runs on separate days, read-out: Avg_IC50
reported_endpoint: IC50

Example results:
CC(=O)N1CC(C)(C(=O)N2C[C@H](F)C[C@H]2C(=O)N[C@@H](c2ccccc2)c2ccc(C(C)C)cc2)C1; > 100 µM
CC(=O)N(CCC(=O)N1C[C@H](F)C[C@H]1C(=O)N[C@@H](c1ccccc1)c1ccc(C(C)C)cc1)c1ccn(C)n1; > 100 µM
O=C(N[C@@H](c1ccccc1)c1ccc(C2CC(F)(F)C2)cn1)[C@@H]1C[C@@H](F)CN1C(=O)Cc1cnn[nH]1; > 100 µM
CC(C)c1ccc([C@@H](NC(=O)[C@@H]2C[C@@H](F)CN2C(=O)Cc2ccon2)c2ccccc2)cc1; > 100 µM
CC(C)c1ccc([C@@H](NC(=O)[C@@H]2C[C@@H](F)CN2C(=O)Cc2cnn[nH]2)c2ccccc2)cc1Cl; > 100 µM

Problem: Report IC50 for CC(=O)N1CCC(C(C)C(=O)N2C[C@H](F)C[C@H]2C(=O)N[C@@H](c2ccccc2)c2ccc(C(C)C)cc2)CC1 (stereo partly drawn) please.
Solution: > 100 µM

###

measured_on: hGYS2 enzyme (recombinant hGYS2/GN1 protein) (Homo sapiens (Human), UniProt P54840)
Sequence (P54840 whole entry): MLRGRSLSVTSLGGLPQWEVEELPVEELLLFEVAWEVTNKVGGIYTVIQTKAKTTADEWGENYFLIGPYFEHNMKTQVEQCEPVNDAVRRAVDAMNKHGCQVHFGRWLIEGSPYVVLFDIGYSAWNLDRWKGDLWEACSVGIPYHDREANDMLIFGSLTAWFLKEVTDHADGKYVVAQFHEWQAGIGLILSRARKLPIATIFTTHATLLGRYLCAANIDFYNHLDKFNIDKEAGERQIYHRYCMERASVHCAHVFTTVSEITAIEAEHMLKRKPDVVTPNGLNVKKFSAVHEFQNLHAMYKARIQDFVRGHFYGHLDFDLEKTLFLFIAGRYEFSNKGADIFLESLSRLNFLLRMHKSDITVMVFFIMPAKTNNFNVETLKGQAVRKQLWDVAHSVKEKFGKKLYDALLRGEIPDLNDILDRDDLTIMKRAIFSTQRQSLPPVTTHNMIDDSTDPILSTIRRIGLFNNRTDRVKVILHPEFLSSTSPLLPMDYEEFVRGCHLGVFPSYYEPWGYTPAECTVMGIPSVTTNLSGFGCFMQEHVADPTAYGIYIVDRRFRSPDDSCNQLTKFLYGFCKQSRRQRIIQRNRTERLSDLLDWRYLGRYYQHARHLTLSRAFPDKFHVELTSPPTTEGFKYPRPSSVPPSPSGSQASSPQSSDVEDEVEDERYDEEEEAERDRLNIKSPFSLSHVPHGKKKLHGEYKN
Sequence (P46976 whole entry partner): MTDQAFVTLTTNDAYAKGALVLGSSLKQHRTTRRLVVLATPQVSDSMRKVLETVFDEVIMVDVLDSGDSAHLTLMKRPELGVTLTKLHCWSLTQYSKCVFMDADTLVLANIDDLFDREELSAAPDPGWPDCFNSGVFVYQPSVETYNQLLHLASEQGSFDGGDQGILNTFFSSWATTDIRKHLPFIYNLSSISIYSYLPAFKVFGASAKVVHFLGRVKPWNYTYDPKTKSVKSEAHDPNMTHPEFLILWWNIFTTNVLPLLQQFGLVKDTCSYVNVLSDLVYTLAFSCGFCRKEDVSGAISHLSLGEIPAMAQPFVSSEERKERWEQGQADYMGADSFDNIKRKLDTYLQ
measurement_notes: GYS2 coupled enzyme assay (PK/LDH)
settings: geometric mean of at least 2 assay runs on separate days, read-out: Avg_IC50
reported_endpoint: IC50

Example results:
Cc1nc(CC(=O)N2C[C@H](F)C[C@H]2C(=O)N[C@@H](c2ccccc2)c2ccc(C(C)C)cc2)c(C)s1 [Compound 69]; > 100 µM
O=C(N[C@@H](c1ccccc1)c1ccc(C2CC(F)(F)C2)c(F)n1)[C@@H]1C[C@@H](F)CN1C(=O)Cn1ccc(=O)[nH]c1=O [Compound 514]; > 100 µM

Problem: Report IC50 for Cn1c(CC(=O)N2C[C@H](F)C[C@H]2C(=O)N[C@@H](c2ccccc2)c2ccc(C3CC3)c(F)n2)noc1=O [Compound 719] please.
Solution: > 100 µM

Problem: Now the molecule O=C(N[C@@H](c1ccccc1)c1ccc(C2CC(F)(F)C2)c(F)n1)[C@@H]1C[C@@H](F)CN1C(=O)Cn1cnc2ccccc21 [Compound 504]
Solution: > 100 µM

Problem: Now the molecule Cc1cnc(CC(=O)N2C[C@H](F)C[C@H]2C(=O)N[C@@H](c2ccccc2)c2ccc(C3CC(F)(F)C3)c(F)c2)o1 [Compound 550]
Solution: > 100 µM

Problem: Now the molecule CC(C)c1ccc([C@@H](NC(=O)[C@@H]2C[C@@H](F)CN2C(=O)CNC(=O)N(C)C)c2ccccc2)nc1 [Compound 250]
Solution: > 100 µM

###

measured_on: hGYS1 enzyme (recombinant hGYS1/GN1 protein) (Homo sapiens (Human), UniProt P13807)
Sequence (P13807 whole entry): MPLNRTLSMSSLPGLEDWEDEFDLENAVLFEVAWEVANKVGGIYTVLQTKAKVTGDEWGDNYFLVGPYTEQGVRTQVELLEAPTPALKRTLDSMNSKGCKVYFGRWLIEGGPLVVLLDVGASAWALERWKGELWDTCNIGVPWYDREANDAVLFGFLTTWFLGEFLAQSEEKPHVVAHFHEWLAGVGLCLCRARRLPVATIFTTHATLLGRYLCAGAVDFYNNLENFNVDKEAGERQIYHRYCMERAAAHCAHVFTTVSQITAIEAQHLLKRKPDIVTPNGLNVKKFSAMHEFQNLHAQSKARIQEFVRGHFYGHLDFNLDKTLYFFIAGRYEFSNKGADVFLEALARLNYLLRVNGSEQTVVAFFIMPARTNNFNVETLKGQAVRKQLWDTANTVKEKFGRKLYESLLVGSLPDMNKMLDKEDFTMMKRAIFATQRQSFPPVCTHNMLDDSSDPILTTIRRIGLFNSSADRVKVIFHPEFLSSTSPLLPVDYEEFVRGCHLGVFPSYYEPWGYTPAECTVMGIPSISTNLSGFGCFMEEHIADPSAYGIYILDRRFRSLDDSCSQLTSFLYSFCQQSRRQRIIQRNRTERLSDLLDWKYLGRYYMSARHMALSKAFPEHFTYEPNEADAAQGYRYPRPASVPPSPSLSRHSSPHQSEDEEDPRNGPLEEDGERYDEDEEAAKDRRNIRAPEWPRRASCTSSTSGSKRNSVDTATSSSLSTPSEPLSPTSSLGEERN
Sequence (P46976 whole entry partner): as the sequence (P46976 whole entry partner) above
measurement_notes: GYS1 coupled enzyme assay (PK/LDH)
settings: hGYS1/GN1 50 nM, UDP-Glucose 0.8 mM, G6P 1 mM; geometric mean of at least 2 runs
pIC50: −log10 of the molar value.
reported_endpoint: pIC50

Example results:
O=C(N[C@@H](c1ccccc1)c1ccc(C2CC(F)(F)C2)c(F)n1)[C@@H]1C[C@@H](F)CN1C(=O)Cc1ccc(=O)[nH]c1 [Compound 516]; 8.10
Cc1nc(C(NC(=O)[C@@H]2C[C@@H](F)CN2C(=O)Cc2cnn[nH]2)c2ccccc2)ccc1C(C)C (single isomer, unassigned) [Compound 607]; 6.48
CC(Cn1cccn1)C(=O)N1C[C@H](F)C[C@H]1C(=O)N[C@@H](c1ccccc1)c1ccc(C(C)C)cc1 (stereo partly drawn) [Compound 80]; 6.50
Cc1nn(CC(=O)N2C[C@H](F)C[C@H]2C(=O)N[C@@H](c2ccccc2)c2ccc(C(C)C)cn2)c(=O)o1 [Compound 275]; 7.12

a. Cc1cn(CC(=O)N2C[C@H](F)C[C@H]2C(=O)N[C@@H](c2ccccc2)c2ccc(C3CC3)c(F)c2)c(=O)[nH]c1=O [Compound 442]
b. Cc1ccccc1OCC(=O)N1C[C@H](F)C[C@H]1C(=O)N[C@@H](c1ccccc1)c1ccc(C(C)C)cc1 [Compound 91]
Problem: When a and b are compared, which has the higher number for pIC50? Lab log: write the label of the selected item as the result.
Solution: a

Values from patent US11814367B2
